- Test system: eosinophils
- experiment-summary: Eosinophil shape change assay with human plasma
- Format: cell-based
- test-parameters: human plasma (50%), PGD2 100 nM activation, antagonistic activity
Criterion: IC50 strictly under 20 nM. Met: condition met. Not met: condition not met.

Input: Check if IC50 falls below 20 nM for CCOc1ccc(CC(=O)O)cc1-c1ccc(F)c2c1CN(C(=O)CC1COCc3ccccc31)CC2 (stereo not shown) [Example 210] .
Output: condition met

Input: Then this molecule: CCOc1ccc(CC(=O)O)cc1-c1ccc(F)c2c1CN(C(=O)CC1COc3ccccc31)CC2 (stereo not shown) [Example 207]
Output: condition met

Input: Entry CCOc1cc(CC(=O)O)ccc1-c1ccc(F)c2c1CN(C(=O)CC1OCCc3ccccc31)CC2 (stereo not shown) [Example 206] please
Output: condition met

Input: How about this molecule: COc1cc(CC(=O)O)ccc1-c1ccc(F)c2c1CN(C(=O)CC1CCOc3ccccc31)CC2 (stereo not shown) [Example 201]
Output: condition not met

Input: Also check CCOc1ccc(CC(=O)O)cc1-c1ccc(F)c2c1CN(C(=O)CC(C)c1ccccn1)CC2 (stereo not shown) [Example 204]
Output: condition not met

Input: Entry CCOc1ccc(CC(=O)O)cc1-c1ccc(F)c2c1CN(C(=O)CC(C)c1ccccn1)CC2 (stereo not shown) [Example 203] please
Output: condition met

Input: Can you handle CCOc1ccc(CC(=O)O)cc1-c1ccc(F)c2c1CN(C(=O)CC1COc3ccccc31)CC2 (stereo not shown) [Example 208] next?
Output: condition not met
